Assay: chemical genetic growth profiling, strain panel (AID 1159580);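 also: tested at 20 µM; growth read once vehicle control cultures reached saturation at 30 °C; 1 = growth at the plate median or of vehicle wells; lower values mean less growth of the strain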
Details: S. cerevisiae deletion strains, growth OD, locus YLR058C, strain SHM2, stronger effect = lower value
About 2,000 (36%) of roughly 5,500 compounds were called active. Inconclusive results (about 18%) are left out. The list shows a part of the results.
Experimental endpoint: normalized growth

| Molecule | Endpoint result |
| --- | --- |
| CN(C)CCCN1c2ccccc2Sc2ccc(C(F)(F)F)cc21 | 0.977 |
| CN(C)CCCN1c2ccccc2Sc2ccc(Cl)cc21 | 0.986 |
| CC(C)CCCC(C)[C@H]1CCC2C3CC[C@@H]4C[C@H](O)CC[C@]4(C)C3CC[C@@]21C (stereo not given in full) | 1 |
| O=P1(N(CCCl)CCCl)NCCCO1 (stereo not given) | 1.01 |
| CC(CCC(=O)O)[C@H]1CCC2C3CC[C@@H]4CC(=O)CC[C@]4(C)C3C=C[C@@]21C (stereo not given in full) | 1.01 |
| C=C(C)C1CCC(C)(O)C2CC3OC3(C)C2C1 (stereo not given) | 1.01 |
| CC(C)CCCC(C)C1CCC2C3=CC[C@H]4C[C@@H](O)CC[C@]4(C)C3CC[C@@]21C (stereo not given in full) | 1.02 |
| CC(C)CCCC(C)C1CCC2C3CC[C@H]4C[C@@H](O)CC[C@]4(C)C3CC[C@]12C (stereo not given in full) | 0.987 |
| CC(C)CCCC(C)[C@H]1CCC2C3CC=C4CC(=O)CC[C@]4(C)C3CC[C@@]21C (stereo not given in full) | 0.967 |
| C[C@H](CCC(=O)O)[C@H]1CCC2C3C(=O)CC4CC(=O)CC[C@]4(C)C3CC(=O)[C@@]21C (stereo not given in full) | 1.01 |

The reported measurements were obtained from PubChem BioAssay AID1159580.
